// data source = patent US9346809B2

Measured EC50, listed per entry.
- ASSAY_SYSTEM: TYK2 (aa 871-1187, catalytic domain, GST-tag) (Homo sapiens)
- Construct: JAK1 (aa 850-1154) and TYK2 (aa 871-1187) are expressed with an N-terminally fused GST-tag; GST (N); purchased Carna Biosciences, Inc; host or cells: baculovirus expression system
- Sequence (P29597 871-1187): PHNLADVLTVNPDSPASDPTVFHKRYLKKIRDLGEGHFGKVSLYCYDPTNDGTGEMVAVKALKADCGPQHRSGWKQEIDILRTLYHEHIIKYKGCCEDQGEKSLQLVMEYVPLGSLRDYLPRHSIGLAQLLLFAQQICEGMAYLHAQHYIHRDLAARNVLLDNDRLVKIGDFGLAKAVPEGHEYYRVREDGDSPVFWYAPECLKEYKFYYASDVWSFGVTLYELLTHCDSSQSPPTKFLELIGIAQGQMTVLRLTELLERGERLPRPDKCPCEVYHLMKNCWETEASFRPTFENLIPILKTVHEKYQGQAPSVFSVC
- PROTOCOL_DETAILS: JAK kinase assay (HTRF, phosphorylation of TK substrate-biotin), TYK2
- Assay type: biochemical
- CONDITION_CONTEXT: HTRF assay, ATP at Km (13 μM); read-out: TYK2 kinase inhibitory activity (EC50 indicator)

COMPOUND | ASSAY_SYSTEM | MEAS_VALUE
N#CCc1cccc(CC(=O)N2[C@@H]3CC[C@@H]2CN(c2ncnc4[nH]ccc24)C3)c1 [Example 346] | TYK2 (aa 871-1187, catalytic domain, GST-tag) (Homo sapiens) | > 500 nM
NS(=O)(=O)c1ccc(NC(=O)C(=O)N2CCN(c3ncnc4[nH]ccc34)CC23CC3)cc1 [Example 401] | TYK2 (aa 871-1187, catalytic domain, GST-tag) (Homo sapiens) | < 100 nM
Cc1cc(C(=O)N2[C@@H]3CC[C@H]2CN(c2ncnc4[nH]ccc24)C3)ccc1S(N)(=O)=O [Example 392] | TYK2 (aa 871-1187, catalytic domain, GST-tag) (Homo sapiens) | > 500 nM
CS(=O)(=O)Nc1ccc(C(=O)N2CCN(c3ncnc4[nH]ccc34)CC23CC3)cc1 [Example 430] | TYK2 (aa 871-1187, catalytic domain, GST-tag) (Homo sapiens) | < 100 nM

GET /values?readout=EC50&item= CS(=O)(=O)c1ccc(C(=O)N2CCN(c3ncnc4[nH]ccc34)CC23CC3)c(Cl)c1 [Example 382]
100 to 500 nM

----------
- ASSAY_SYSTEM: JAK3 (catalytic domain, His-tag) (Homo sapiens, UniProt P52333)
- Construct: All four purified enzymes contain only the catalytic domain; His (N); purchased Carna Biosciences, Inc; host or cells: baculovirus expression system
- Sequence (P52333 822-1111 limits assumed): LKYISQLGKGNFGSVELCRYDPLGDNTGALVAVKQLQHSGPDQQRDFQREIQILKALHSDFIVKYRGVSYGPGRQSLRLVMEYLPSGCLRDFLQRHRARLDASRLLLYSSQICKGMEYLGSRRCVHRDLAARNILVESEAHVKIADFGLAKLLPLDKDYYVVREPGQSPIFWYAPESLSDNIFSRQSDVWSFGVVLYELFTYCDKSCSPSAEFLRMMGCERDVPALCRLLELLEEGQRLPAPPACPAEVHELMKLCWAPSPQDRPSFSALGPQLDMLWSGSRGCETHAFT
- PROTOCOL_DETAILS: JAK kinase assay (HTRF, phosphorylation of TK substrate-biotin), JAK3
- Assay type: biochemical
- CONDITION_CONTEXT: HTRF assay, ATP at Km (2 μM); read-out: JAK3 kinase inhibitory activity (EC50 indicator)
TEST_READOUT: EC50

// solved cases for EC50 follow
COMPOUND | EC50
N#CCCNS(=O)(=O)c1ccc(C(=O)N2CCN(c3ncnc4[nH]ccc34)CC23CC3)cc1 [Example 395] | < 0.1 µM
O=C([C@@H]1CCCc2ccccc21)N1CCN(c2ncnc3[nH]ccc23)CC12CC2 [Example 415] | > 0.5 µM
COCCNS(=O)(=O)c1ccc(C(=O)N2CCN(c3ncnc4[nH]ccc34)CC23CC3)cc1 [Example 396] | < 0.1 µM
O=C(c1ccccc1)N1C[C@@H]2C[C@H]1CN2c1ncnc2[nH]ccc12 (racemic) [Example 253] | > 0.5 µM
COC(=O)c1cc2c(N3CCN(C(=O)Cc4ccc(C(F)(F)F)cc4)C4(CC4)C3)ncnc2[nH]1 [Example 338] | > 0.5 µM
COc1cnc2[nH]ccc2c1N1CCN(C(=O)c2ccc(-c3ccccc3)s2)C2(CC2)C1 [Example 290] | > 0.5 µM
O=C(c1csc2ccccc12)N1CCN(c2ncnc3[nH]ccc23)CC12CC2 [Example 214] | < 0.1 µM

Given O=C(Cc1ccc(F)cc1)N1CCN(c2ncnc3[nH]cc(Cl)c23)CC12CC2 [Example 320] , state its recorded EC50.
0.1 to 0.5 µM

----------
- ASSAY_SYSTEM: TYK2 (aa 871-1187, catalytic domain, GST-tag) (Homo sapiens)
- Construct: JAK1 (aa 850-1154) and TYK2 (aa 871-1187) are expressed with an N-terminally fused GST-tag; GST (N); purchased Carna Biosciences, Inc; host or cells: baculovirus expression system
- PROTOCOL_DETAILS: JAK kinase assay (HTRF, phosphorylation of TK substrate-biotin), TYK2
- Type: biochemical
- CONDITION_CONTEXT: HTRF assay, ATP at Km (13 μM); read-out: TYK2 kinase inhibitory activity (EC50 indicator)
pEC50: −log10 of the molar value.
TEST_READOUT: pEC50

COMPOUND | ASSAY_SYSTEM | pEC50
O=C(Cc1ccc(C(F)(F)F)cc1)N1CCN(c2ncnc3[nH]cc(Cl)c23)CC12CC2 [Example 321] | TYK2 (aa 871-1187, catalytic domain, GST-tag) (Homo sapiens) | < 6.30
Cc1c[nH]c2ncnc(N3CCN(C(=O)Cc4cccc(CC#N)c4)C4(CC4)C3)c12 [Example 327] | TYK2 (aa 871-1187, catalytic domain, GST-tag) (Homo sapiens) | < 6.30
COc1cc(C(=O)N2CCN(c3ncnc4[nH]ccc34)CC23CC3)cs1 [Example 384] | TYK2 (aa 871-1187, catalytic domain, GST-tag) (Homo sapiens) | > 7.00

Checklist item: pEC50 tested on TYK2 (aa 871-1187, catalytic domain, GST-tag) (Homo sapiens), entry N#Cc1cccc(CC(=O)N2CCN(c3ncnc4[nH]cc(Cl)c34)CC23CC3)c1 [Example 323] , value?
< 6.30

----------
pEC50 reference
- ASSAY_SYSTEM: JAK1 (aa 850-1154, catalytic domain, GST-tag) (Homo sapiens)
- Construct: JAK1 (aa 850-1154) and TYK2 (aa 871-1187) are expressed with an N-terminally fused GST-tag; GST (N); purchased Carna Biosciences, Inc; host or cells: baculovirus expression system
- PROTOCOL_DETAILS: JAK kinase assay (HTRF, phosphorylation of TK substrate-biotin), JAK1
- Assay type: biochemical
- CONDITION_CONTEXT: ATP at Km (7 μM); read-out: JAK1 kinase inhibitory activity (EC50 indicator)
pEC50: −log10 of the molar value.

MOLECULE | MEAS_VALUE
COC(=O)c1cc2c(N3CCN(C(=O)Cc4cccc(C#N)c4)C4(CC4)C3)ncnc2[nH]1 | < 6.30

Requested read-out: pEC50. Entry: `O=C(c1ccc(-c2ccccc2)cc1)N1CCN(c2ncnc3[nH]ccc23)CC12CC2`
> 7.00

So what's the measured pEC50 for this one? `O=C(Cc1cccnc1)N1[C@@H]2CC[C@@H]1CN(c1ncnc3[nH]ccc13)C2`
< 6.30

Sample CC1CN(C(=O)c2ccc(C#N)cc2)C2(CC2)CN1c1ncnc2[nH]ccc12 (stereo not drawn) — what was its pEC50?
> 7.00

Given the molecule `Cc1ccc(C(=O)N2CCN(c3ncnc4[nH]ccc34)CC23CC3)cc1C(=O)Nc1cccc(C(F)(F)F)c1` , what is its reported pEC50?
6.30 to 7.00

Fill in the blank: the reported pEC50 of `N#Cc1cccc(CC(=O)N2CCN(c3ncnc4[nH]ccc34)CC23CC3)c1` is ____.
6.30 to 7.00

Find the recorded pEC50 belonging to `Cc1c[nH]c2ncnc(N3CCN(C(=O)c4cnc5ccccc5n4)C4(CC4)C3)c12` and report it.
< 6.30

Quick check: pEC50 of `O=C(c1cc2cc(F)ccc2[nH]1)N1C2CCC1CN(c1ncnc3[nH]ccc13)C2` ?
> 7.00

Quick check: pEC50 of `N#Cc1ccc2[nH]c(C(=O)N3C4CCC3CN(c3ncnc5[nH]ccc35)C4)cc2c1` ?
> 7.00

----------
- ASSAY_SYSTEM: JAK1 (aa 850-1154, catalytic domain, GST-tag) (Homo sapiens, UniProt P23458)
- Construct: JAK1 (aa 850-1154) and TYK2 (aa 871-1187) are expressed with an N-terminally fused GST-tag; GST (N); purchased Carna Biosciences, Inc; host or cells: baculovirus expression system
- Sequence (P23458 850-1154): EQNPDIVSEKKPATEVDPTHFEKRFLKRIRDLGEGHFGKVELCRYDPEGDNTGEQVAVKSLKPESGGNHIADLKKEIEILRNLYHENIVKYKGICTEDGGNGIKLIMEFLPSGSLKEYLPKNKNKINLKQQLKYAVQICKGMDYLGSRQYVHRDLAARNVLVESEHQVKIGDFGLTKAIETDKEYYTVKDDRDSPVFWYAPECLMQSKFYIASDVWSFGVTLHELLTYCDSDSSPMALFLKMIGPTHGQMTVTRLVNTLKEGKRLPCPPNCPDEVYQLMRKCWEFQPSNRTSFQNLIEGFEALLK
- PROTOCOL_DETAILS: JAK kinase assay (HTRF, phosphorylation of TK substrate-biotin), JAK1
- Type: biochemical
- CONDITION_CONTEXT: HTRF assay, ATP at Km (7 μM); read-out: JAK1 kinase inhibitory activity (EC50 indicator)
pEC50: −log10 of the molar value.
Listed next: entries and their corresponding pEC50.

CPD_SMILES | pEC50
O=C(c1ccncc1)N1CCN(c2ccnc3[nH]ccc23)CC12CC2 | 6.30 to 7.00
N#CCc1ccc(CC(=O)N2CCN(c3ncnc4[nH]cc(Cl)c34)CC23CC3)cc1 | < 6.30
N#CCc1ccc(CC(=O)N2CCN(c3nc(N)nc4[nH]ccc34)CC23CC3)cc1 | 6.30 to 7.00

Now turn to the next compound.
// query pEC50 value for entry `COc1cc(S(N)(=O)=O)ccc1C(=O)N1CCN(c2ncnc3[nH]ccc23)CC12CC2`
> 7.00

----------
- ASSAY_SYSTEM: JAK3 (catalytic domain, His-tag) (Homo sapiens, UniProt P52333)
- Construct: All four purified enzymes contain only the catalytic domain; His (N); purchased Carna Biosciences, Inc; host or cells: baculovirus expression system
- PROTOCOL_DETAILS: JAK kinase assay (HTRF, phosphorylation of TK substrate-biotin), JAK3
- Format: biochemical
- CONDITION_CONTEXT: HTRF assay, ATP at Km (2 μM); read-out: JAK3 kinase inhibitory activity (EC50 indicator)
TEST_READOUT: EC50

Worked set:
CPD_SMILES | EC50
N#Cc1ccc(C2(C(=O)N3CCN(c4ncnc5[nH]ccc45)CC34CC4)CC2)cc1 | < 100 nM
O=C(c1ccc(OC(F)(F)F)cc1)N1[C@@H]2CC[C@@H]1CN(c1ncnc3[nH]ccc13)C2 | 100 to 500 nM

// EC50 lookup, key: `N#CCc1ccc(CC(=O)N2[C@@H]3CC[C@@H]2CN(c2ncnc4[nH]ccc24)C3)cc1`
> 500 nM

Give its EC50 value. Item: `COc1cccc(C(=O)N2CCN(c3ncnc4[nH]ccc34)CC23CC3)c1OC`
> 500 nM

# lookup: EC50 of `Cc1sc(C(=O)N2CCN(c3ncnc4[nH]ccc34)CC23CC3)cc1S(N)(=O)=O`
< 100 nM

Data request, read-out EC50, for `N#CCOc1ccc(C(=O)N2[C@@H]3CC[C@@H]2CN(c2ncnc4[nH]ccc24)C3)cc1`
100 to 500 nM

Give the measured EC50 of `O=C(c1cnc2ccccc2n1)N1[C@@H]2CC[C@H]1CN(c1ncnc3[nH]ccc13)C2` .
100 to 500 nM

Looking for the measured EC50 of `COc1cc(OC)cc(C(=O)N2CCN(c3ncnc4[nH]ccc34)CC23CC3)c1` , can you help?
100 to 500 nM

Using the record for `Cc1ccc2sc(C(=O)N3[C@@H]4CC[C@H]3CN(c3ncnc5[nH]ccc35)C4)cc2c1` , report its EC50.
100 to 500 nM
